Data origin: patent US20110158985A1

Catalogue of kon values
biological target: T1, recombinant C-terminally truncated RSV (A2 strain) F protein (RSV (A2 strain), UniProt P03420 26-524); test: SPR (BIAcore), IgG over immobilised F
T1 construct: extracellular domain; also called truncated F protein; extracellular domain of the F protein from RSV A2
T1 sequence (P03420 26-109, chain 1 of 2): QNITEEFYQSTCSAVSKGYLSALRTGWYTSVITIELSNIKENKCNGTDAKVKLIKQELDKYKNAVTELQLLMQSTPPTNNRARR
T1 sequence (P03420 137-524, chain 2 of 2): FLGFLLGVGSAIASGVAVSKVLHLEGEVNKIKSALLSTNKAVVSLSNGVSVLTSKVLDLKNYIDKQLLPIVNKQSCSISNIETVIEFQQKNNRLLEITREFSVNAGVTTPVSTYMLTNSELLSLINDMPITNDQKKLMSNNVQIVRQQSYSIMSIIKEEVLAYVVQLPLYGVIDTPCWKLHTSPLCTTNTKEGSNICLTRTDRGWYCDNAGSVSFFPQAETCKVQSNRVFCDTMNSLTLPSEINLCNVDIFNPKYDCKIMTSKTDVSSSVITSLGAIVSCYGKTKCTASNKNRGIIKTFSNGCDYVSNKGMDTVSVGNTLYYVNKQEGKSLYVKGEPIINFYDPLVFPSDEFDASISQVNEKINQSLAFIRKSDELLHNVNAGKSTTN
RESULT_TYPE: kon (M⁻¹ s⁻¹)

BINDER: A8c7 IgG (antibody, V domains shown) VH: QVTLRESGPALVKPTQTLTLTCTFSGFSLSTAGMSVGWIRQPPGKALEWLADIWWDDKKSYNPSLKDRLTISKDTSKNQVVLKVTNMDPADTATYYCARDMIFNWYFDVWGQGTTVTVSS VL: DIQMTQSPSTLSASVGDRVTITCSPSSRVGYMHWYQQKPGKAPKLLIYDTRYQSSGVPSRFSGSGSGTEFTLTISSLQPDDFATYYCFQGSGYPFTFGGGTKVEIKR
VAL: 417000
//
BINDER: P12f4 IgG (antibody, V domains shown) VH: QVTLRESGPALVKPTQTLTLTCTFSGFSLSTPGMSVGWIRQPPGKALEWLADIWWDGKKHYNPSLKDRLTISKDTSKNQVVLKVTNMDPADTATYYCARDMIFNFYFDVWGQGTTVTVSS VL: DIQMTQSPSTLSASVGDRVTITCSLSSRVGYMHWYQQKPGKAPKLLIYDTRGLPSGVPSRFSGSGSGTEFTLTISSLQPDDFATYYCFQGSGYPFTFGGGTKVEIKR
VAL: 495000
//
BINDER: P11d4 IgG (antibody, V domains shown) VH: QVTLRESGPALVKPTQTLTLTCTFSGFSLSTPGMSVGWIRQPPGKALEWLADIWWDGKKHYNPSLKDRLTISKDTSKNQVVLKVTNMDPADTATYYCARDMIFNWYFDVWGQGTTVTVSS VL: DIQMTQSPSTLSASVGDRVTITCSPSSRVGYMHWYQQKPGKAPKLLIYDTMRLASGVPSRFSGSGSGTEFTLTISSLQPDDFATYYCFQGSGYPFTFGGGTKVEIKR
VAL: 466000
